test: in vitro; conditions: human
Cut-off 30 µM on CC50: below means y, at or above means n.

- compound: "c1ccc(CCN(Cc2ccccc2)C2CCN(c3ccccc3)CC2)cc1 [Phenyl]"
  label-class: "n"
- compound: "c1ccc(CCN(Cc2ccccc2)C2CCN(C3CCCCC3)CC2)cc1 [Cyclohexyl]"
  label-class: "n"
- compound: "CC(=O)N1CCC(N(CCc2ccccc2)Cc2ccccc2)CC1 [Acetyl]"
  label-class: "n"
- compound: "COC(=O)c1ccc(CN2CCC(N(CCc3ccccc3)Cc3ccccc3)CC2)cc1 [4-Methoxycarbonylbenzyl]"
  label-class: "n"
- compound: "CCCCN1CCC(N(CCc2ccccc2)Cc2ccccc2)CC1 [Butyl]"
  label-class: "y"
- compound: "[2H]C([2H])([2H])CN1CCC(N(CCc2ccccc2)Cc2ccccc2)CC1 [CD3CH2—]"
  label-class: "n"
- compound: "Brc1ccc(CN2CCC(N(CCc3ccccc3)Cc3ccccc3)CC2)cc1 [4-Bromobenzyl]"
  label-class: "n"
- compound: "Ic1ccc(CN2CCC(N(CCc3ccccc3)Cc3ccccc3)CC2)cc1 [Compound 4-Iodobenzyl]"
  label-class: "n"
- compound: "FC(F)(F)c1ccc(CN2CCC(N(CCc3ccccc3)Cc3ccccc3)CC2)cc1 [4-Trifluoromethylbenzyl]"
  label-class: "n"
- compound: "COc1ccc(CN2CCC(N(CCc3ccccc3)Cc3ccccc3)CC2)cc1 [4-Methoxybenzyl]"
  label-class: "y"
- compound: "O=[S+]([O-])(c1ccccc1)N1CCC(N(CCc2ccccc2)Cc2ccccc2)CC1 [Phenylsulfonyl]"
  label-class: "n"
- compound: "COc1cccc(CN2CCC(N(CCc3ccccc3)Cc3ccccc3)CC2)c1 [3-Methoxybenzyl]"
  label-class: "n"
- compound: "FC(F)(F)CN1CCC(N(CCc2ccccc2)Cc2ccccc2)CC1 [CF3CH2—]"
  label-class: "n"
- compound: "CCN1CCC(N(CCc2ccccc2)Cc2ccccc2)CC1 [Et]"
  label-class: "n"
- compound: "Cc1ccc(CN2CCC(N(CCc3ccccc3)Cc3ccccc3)CC2)cc1 [4-Methylbenzyl]"
  label-class: "n"
- compound: "COc1ccccc1CN1CCC(N(CCc2ccccc2)Cc2ccccc2)CC1 [2-Methoxybenzyl]"
  label-class: "y"
- compound: "c1ccc(CCN2CCC(N(CCc3ccccc3)Cc3ccccc3)CC2)cc1 [2-Phenylethyl]"
  label-class: "n"

###

system: HCV-Luc; test: HCV-Luc infection assay; format: cell-based; conditions: Hepatitis C virus
pEC50: −log10 of the molar value.
readout: pEC50

- smiles-input: "c1ccc(CCN(Cc2ccccc2)C2CCN(c3ccccc3)CC2)cc1"
  bound-operator: "<"
  endpoint-result: 4.50
- smiles-input: "Fc1ccc(CN2CCC(N(CCc3ccccc3)Cc3ccccc3)CC2)cc1"
  bound-operator: "="
  endpoint-result: 5.02
- smiles-input: "COc1ccc(CN2CCC(N(CCc3ccccc3)Cc3ccccc3)CC2)cc1"
  bound-operator: "="
  endpoint-result: 5.36
- smiles-input: "COc1ccccc1CN1CCC(N(CCc2ccccc2)Cc2ccccc2)CC1"
  bound-operator: "="
  endpoint-result: 6.19
- smiles-input: "OCCOCCN1CCN(C(c2ccc(Cl)cc2)c2ccc(Cl)cc2)CC1"
  bound-operator: "="
  endpoint-result: 8.26

###

Parameter: pEC50. Scope: all listed entries.
system: HCV-Luc; assay: HCV-Luc infection assay; type: cell-based; details: Hepatitis C virus; Table 3; read-out: EC50
pEC50: −log10 of the molar value.

- compound: "CC(C)(C)OC(=O)NCCOCCOCCOCCOCCN1CCN(C(c2ccccc2)c2ccc(Cl)cc2)CC1 (racemic) [(CH2CH2O)4(CH2)2NHC(═O)Ot-Bu (R,S)]"
  bound-operator: "="
  pEC50: 6.70
- compound: "CN1CCN([C@H](c2ccccc2)c2ccc(Cl)cc2)CC1 [(R)-CCZ]"
  bound-operator: "="
  pEC50: 7.70
- compound: "[2H]C([2H])([2H])N1CCN([C@@H](c2ccccc2)c2ccc(Cl)cc2)CC1 [CD3 (S)]"
  bound-operator: "="
  pEC50: 7.20
- compound: "CC(=O)N1CCN([C@@H](c2ccccc2)c2ccc(Cl)cc2)CC1 [Acetyl (S)]"
  bound-operator: "="
  pEC50: 4.66
- compound: "Clc1ccc([C@H](c2ccccc2)N2CCN(C3CCCCC3)CC2)cc1 [Cyclohexyl (S)]"
  bound-operator: "="
  pEC50: 6.75
- compound: "Clc1ccc([C@@H](c2ccccc2)N2CCNCC2)cc1 [H (R)]"
  bound-operator: "="
  pEC50: 7.49
- compound: "COc1ccc(CN2CCN([C@@H](c3ccccc3)c3ccc(Cl)cc3)CC2)c(OC)c1 [2-4-dimethoxybenzyl (S)]"
  bound-operator: "="
  pEC50: 6.34
- compound: "FC(F)(F)CN1CCN([C@@H](c2ccccc2)c2ccc(Cl)cc2)CC1 [CF3CH2 (S)]"
  bound-operator: "<"
  pEC50: 4.50
